# credit: patent US20240317847A1

binders and their reported IC50, RGA 2
# tested_on: T1, murine IL-11 (mouse, UniProt P47873 22-199)
# T1 sequence: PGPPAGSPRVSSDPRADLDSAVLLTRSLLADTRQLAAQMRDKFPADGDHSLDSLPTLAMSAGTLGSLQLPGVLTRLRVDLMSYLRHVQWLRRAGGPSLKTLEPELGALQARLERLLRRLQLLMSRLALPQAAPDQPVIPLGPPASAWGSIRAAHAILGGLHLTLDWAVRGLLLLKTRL
# protocol_notes: cell-based or functional assay
Numeric only. Scale: nM

binder="TPP-31303 (antibody, IgG4, V domains shown) VH: EVQLLESGGGLVQPGGSLRLSCAASGFTFSHYDMNWLRQAPGKGLEWVGVISYEGSNKFYADFVKGRFTISRDNSKNTLYLQMNSLRAEDTAVYYCARTPGSHFDYWGQGTLVTVSS VL: QSVLTQPPSASGTPGQRVTISCSGSSSNIGNNAVNWYQQLPGTAPKLLIYYDDLLPSGVPDRFSGSKSGTSASLAISGLRSEDEADYYCSAWDDSLNAVVFGGGTKLTVL" measure_name="IC50, RGA 2" observed_measurement=2.49

Lab note: TPP-31284 (antibody, IgG4, V domains shown, hIgG4 SPLE, lambda) VH: EVQLLESGGGLVQPGGSLRLSCAASGFTFSHYDMNWLRQAPGKGLEWVGVISYDGSNKFYADFVKGRFTISRDNSKNTLYLQMNSLRAEDTAVYYCARTPGSHFDYWGQGTLVTVSS VL: QSVLTQPPSASGTPGQRVTISCSGSSSNIGNNAVNWYQQLPGTAPKLLIYYDDLRPSGVPDRFSGSKSGTSASLAISGLRSEDEADYYCSAWDDSLNGVVFGGGTKLTVL gave IC50, RGA 2 of 17

Lab note: TPP-31289 (antibody, IgG4, V domains shown) VH: EVQLLESGGGLVQPGRSLRLSCAASGFTFSHYDMNWLRQAPGKGLEWVGVISYDGSNKFYADFVKGRFTISRDNSKNTLYLQMNSLRAEDTAVYYCARTPGSHFDYWGQGTLVTVSS VL: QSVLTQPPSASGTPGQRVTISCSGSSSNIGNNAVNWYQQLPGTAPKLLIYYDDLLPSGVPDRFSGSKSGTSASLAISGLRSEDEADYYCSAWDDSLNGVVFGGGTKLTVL gave IC50, RGA 2 of 23
